From: PubChem BioAssay AID1996

test parameters: buffer; pH 7.4; 200.0 µM
Reported solubility kinetic values for the following compounds.

Here is how some compounds turned out for solubility kinetic.
[
  {
    "compound": "Cc1ccccc1Nc1nc(N)nc(CSc2n[nH]c(N)n2)n1",
    "result": "> 49.4 µg/mL"
  },
  {
    "compound": "COC(=O)Cn1ncc(N(C)Cc2ccccc2)c(Cl)c1=O",
    "result": "> 48.3 µg/mL"
  },
  {
    "compound": "COc1ccc(CCNc2ncccc2C#N)cc1OC",
    "result": "> 42.5 µg/mL"
  }
]

Answer with the recorded solubility kinetic for the compound listed here: O=C1CC(C2CCCO2)C(=O)N1c1ccc(Cl)c(Cl)c1 (centres undefined)
> 47.1 µg/mL

Return solubility kinetic (reported value) for this compound: CCOC(=O)c1ccccc1NC(=O)C1CSC2(C)CCC(=O)N12 (centres undefined)
> 52.3 µg/mL

Give the reported value of solubility kinetic for this record: "CC(C)OP(=O)(O)NC(=O)c1ccccc1"
> 36.5 µg/mL

Specify measured solubility kinetic for O=C(NCC1CCCO1)c1cncc(Br)c1 (centres undefined) .
> 42.8 µg/mL

State its solubility kinetic for this compound: "COc1ccc(NS(=O)(=O)c2cccc(C(=O)O)c2)cc1S(=O)(=O)N1CCCCC1"
> 68.2 µg/mL

Report measured solubility kinetic; entry is COc1ccc(NC(=S)NC2CC3CCCC(C2)N3C2CC2)cc1 (centres undefined)
> 51.8 µg/mL

Read off the recorded solubility kinetic for "COc1ccc(CCNC(=O)c2noc(C)c2[N+](=O)[O-])cc1OC"
> 50.3 µg/mL

Supply measured solubility kinetic of "O=C(O)c1ccc(NCc2ccc(Br)cc2)cc1" in your reply.
> 45.9 µg/mL

Give me measured solubility kinetic, please, for this compound: "CCOC(=O)CC(=O)CSc1nccc(-c2cccnc2)n1"
> 47.6 µg/mL

Given "Cc1ccc(NC(=O)c2ccccn2)c(Br)c1" , respond with its solubility kinetic.
< 0.3 µg/mL

Provide measured solubility kinetic value, entry: "Cl.c1cc(CNC23CC4CC(CC(C4)C2)C3)ccn1"
> 47.3 µg/mL

Read the entry "O=C(N1CCCCC1)N1CCN(S(=O)(=O)c2ccccc2)CC1" and write its reported solubility kinetic.
> 50.6 µg/mL

Give solubility kinetic for "O=C(COC(=O)/C=C/c1ccccc1[N+](=O)[O-])NC1CC1"
> 43.5 µg/mL

For the compound "CCOc1cccc(CNc2ccc(O)cc2)c1OCc1ccc(Cl)cc1" , report solubility kinetic.
> 57.6 µg/mL

Supply measured solubility kinetic of "CC(C)(C)c1ccc(Oc2ccc(NC(=O)CCCC(=O)O)cn2)cc1" in your reply.
> 53.5 µg/mL

Supply reported solubility kinetic belonging to this compound: "COCCn1c(SCC(=O)NC2CCCC2)nc2cccnc21"
> 50.2 µg/mL

Using the record for "CNC(=S)N1CCC(NC(=O)c2ccco2)CC1" , state its measured solubility kinetic.
> 40.1 µg/mL
